Form field: Mono (one value per entry).
- Species on record: Rattus norvegicus
- Experiment: Open TG-GATES - Regimen: Daily Repeat
- Type: toxicity, organism-based, Sprague-Dawley
- Set-up: regimen Daily Repeat, gender Male, age 6 weeks
- Test Settings: in vivo, po, 100 mg/kg, […], tissue Blood, route gavage, dose level Low, time 14 day

{"columns": ["Compound", "Mono, %"],
 "data": [
  ["CCOC(=O)CCC(=O)O[C@H]1[C@H](O[C@@H]2[C@@H](C)[C@H](O[C@H]3C[C@@](C)(OC)[C@@H](O)[C@H](C)O3)[C@@H](C)C(=O)O[C@H](CC)[C@@](C)(O)[C@H](O)[C@@H](C)C(=O)[C@H](C)C[C@@]2(C)O)O[C@H](C)C[C@@H]1N(C)C [ERYTHROMYCIN ETHYLSUCCINATE]", 2.2],
  ["CCOc1ccc(NC(=O)CC(C)O)cc1 (stereo not given)", 2.4],
  ["NC(N)=Nc1nc(CSCCC(N)=NS(N)(=O)=O)cs1", 2.4],
  ["COC1=CC(=O)C[C@@H](C)[C@]12Oc1c(Cl)c(OC)cc(OC)c1C2=O", 3.2],
  ["COc1ccc2[nH]c([S+]([O-])Cc3ncc(C)c(OC)c3C)nc2c1 (stereo not given)", 2.2]
]}

====

- Species on record: Rattus norvegicus
- Experiment: Open TG-GATES - Regimen: Daily Repeat
- Type: toxicity, organism-based, Sprague-Dawley
- Design: regimen Daily Repeat, gender Male, age 6 weeks
- Test Settings: in vivo, po, 0 mg/kg, […], tissue Plasma, route gavage, dose level Control, time 7 day

{"columns": ["Compound", "IP (mg/dL)"],
 "data": [
  ["CCOC(=O)CCC(=O)O[C@H]1[C@H](O[C@@H]2[C@@H](C)[C@H](O[C@H]3C[C@@](C)(OC)[C@@H](O)[C@H](C)O3)[C@@H](C)C(=O)O[C@H](CC)[C@@](C)(O)[C@H](O)[C@@H](C)C(=O)[C@H](C)C[C@@]2(C)O)O[C@H](C)C[C@@H]1N(C)C [ERYTHROMYCIN ETHYLSUCCINATE]", 7.3],
  ["CCCNC(=O)NS(=O)(=O)c1ccc(Cl)cc1 [CHLORPROPAMIDE]", 6.7],
  ["NC(N)=Nc1nc(CSCCC(N)=NS(N)(=O)=O)cs1 [FAMOTIDINE]", 7.5],
  ["COC1=CC(=O)C[C@@H](C)[C@]12Oc1c(Cl)c(OC)cc(OC)c1C2=O [GRISEOFULVIN]", 7.4],
  ["CN(C)CCN(Cc1cccs1)c1ccccn1", 7.3],
  ["O=C(CCCN1CCC(O)(c2ccc(Cl)cc2)CC1)c1ccc(F)cc1 [HALOPERIDOL]", 7.4]
]}

====

- Species on record: Rattus norvegicus
- Experiment: Open TG-GATES - Regimen: Single
- Assay type: toxicity, organism-based, Sprague-Dawley
- Design: regimen Single, gender Male, age 6 weeks
- Test Settings: in vivo, po, 0 mg/kg, 3 h, tissue Plasma, route gavage, dose level Control
Form field: Na (one value per entry).
Reported Endpoint: Na (meq/L)

{"columns": ["Molecule", "Endpoint Value"],
 "data": [
  ["O=C(CCCN1CCC(O)(c2ccc(Cl)cc2)CC1)c1ccc(F)cc1", 139],
  ["CN1C(=O)CN=C(c2ccccc2)c2cc(Cl)ccc21", 138.8],
  ["COc1ccc2[nH]c([S+]([O-])Cc3ncc(C)c(OC)c3C)nc2c1 (centres undefined)", 140.4],
  ["CN(C)CCCN1c2ccccc2CCc2ccc(Cl)cc21", 140.2],
  ["CCCNC(=O)NS(=O)(=O)c1ccc(Cl)cc1 [CHLORPROPAMIDE]", 142.2],
  ["COC1=CC(=O)C[C@@H](C)[C@]12Oc1c(Cl)c(OC)cc(OC)c1C2=O", 141.4],
  ["CCOc1ccc(NC(=O)CC(C)O)cc1 (centres undefined)", 141.8],
  ["C[C@@H]1C[C@H]2[C@@H]3CCC4=CC(=O)C=C[C@]4(C)[C@@]3(F)[C@@H](O)C[C@]2(C)[C@@]1(O)C(=O)CO", 140.8],
  ["Cc1ccc(C)c(OCCCC(C)(C)C(=O)O)c1", 140.2]
]}
